Items are presented alongside their recorded TGI.
System: A549 NSCLC
Assay: NCI tumour cell line growth inhibition, 48 h

Q: Query (molecule): Clc1ccc(CO/N=C(\Cn2ccnc2)c2ccc(Cl)cc2Cl)c(Cl)c1 ; field requested: TGI
Result: 3.32 µM

Q: And what about the molecule Cn1c2cccc3nnc4cccc(c4c32)n1C ?
Result: > 100 µM

* * *

Test system: RXF 393 renal
Experiment: NCI tumour cell line growth inhibition, 48 h
Value Kind: TGI

COc1ccc(-c2nc(-c3nc4cc(C)c(C)cc4[nH]3)cc3c2[nH]c2ccccc23)cc1; 3.66 µM
[N-]=[N+]=CC(=O)OCC(N)C(=O)O (centres undefined); > 100 µM
NC(=O)Oc1cc(OC(N)=O)cc(N(CCCl)CCCl)c1; 5.4 µM
CN1CCN(Cc2ccc(Nc3ncc(Cl)c(Nc4ccccc4S(=O)(=O)N(C)C)n3)cc2)CC1; 0.122 µM
CSc1ccc(-c2cc(-c3nc4ccccc4[nH]3)nc3[nH]c(-c4nc5ccccc5[nH]4)cc(=O)c23)cc1; > 100 µM
COC(=O)/C(C#N)=C(\Nc1ccccc1)N1CCCCC1; > 100 µM
Cc1ccc(S(=O)(=O)N/N=C(\C(=O)Nc2cccc([N+](=O)[O-])c2)c2nc3ccc([N+](=O)[O-])cc3[nH]c2=O)cc1; > 100 µM
COC(=O)Nc1nc2ccc(Oc3ccc(NC(=O)Nc4cccc(Cl)c4)cc3)cc2[nH]1; 2.34 µM

Here is another molecule to look at.
Q: Which TGI is reported for this molecule? CN(C)CCN1C(=O)c2ccccc2C1(O)c1ccc(Cl)cc1 (centres undefined)
Result: 77.5 µM

* * *

Reported GI50 by item:
Tested on: HT29 colon
Experiment: NCI tumour cell line growth inhibition, 48 h

These solved cases illustrate the format of a correct answer.
CO[C@H]1CC[C@@]2(C)C(=CC[C@H]3[C@@H]4C[C@H](O)C[C@@]4(C)CC[C@@H]32)C1; 3.59 µM
O=C1/C(=C/C(Cl)=C/c2ccccc2)SC(=S)N1CCc1ccc(O)cc1; 2.11 µM
Clc1ccc(CO/N=C(\Cn2ccnc2)c2ccc(Cl)cc2Cl)c(Cl)c1; 1.65 µM
CCN(CC)CCOc1cc2c(C(=O)OC)c(C)oc2cc1C(C)=O; 17 µM

Let's switch to this molecule now.
Q: GET /values?readout=GI50&item= Cc1ccc2sc3c(NCCCNCCO)nc4ccccc4c3c(=O)c2c1
Result: 1.67 µM

* * *

Test system: HS 578T breast
Experiment: NCI tumour cell line growth inhibition, 48 h; in the data active = GI50 below about 0.43 µM; inactive = the rest
The reply should name one outcome from 1 (active), -1 (inactive)

COc1ccc(F)cc1C(=O)c1cnc(NC2CCN(S(C)(=O)=O)CC2)nc1N; -1
COC(=O)[C@@H](C)C[C@H](Cc1ccccc1)NC(=O)c1csc([C@@H](C[C@H](C(C)C)N(C)C(=O)[C@@H](NC(=O)[C@H]2CCCCN2C)C(C)C)OC(C)=O)n1; 1
COC(=O)c1c2c(c(C)[n+]([O-])c1C)C(=O)C(NCc1ccc(F)c(F)c1)=CC2=O; -1
CC[C@H](C)C(=O)O[C@H]1CCC=C2C=C[C@H](C)C(CCC3C[C@@H](O)CC(=O)O3)[C@H]21 (stereo partly drawn); -1
C=C[C@]1(C)C=C2C(=O)[C@@]3(O)OC(=O)[C@@]4(CCCC(C)(C)[C@H]34)[C@@]2(O)CC1; -1

Q: Record lookup: outcome of this test for O=C1/C(=C/C(Cl)=C/c2ccccc2)SC(=S)N1CCc1ccc(O)cc1 ?
Result: -1

Q: Also Cn1cnc2c(NCc3ccccc3)nc(NCCO)nc21 , if possible.
Result: -1

Q: Also, Cc1ccc(NC(=O)c2ccnc(N3CCCC3)c2)cc1-c1ccc(C(=O)NCC2CC2)cc1 please.
Result: -1
